Every entry's value here was drawn from patent US20030040456A1.

- Test name: solubility of the organic solvents in castor oil at 30° C.
- Format: physicochemical
Readout type: solubility in castor oil

Below, each entry is followed by its recorded solubility in castor oil result.
Molecule	solubility in castor oil
CN1CCCC1=O	infinitely soluble
CCCCOCC(C)O (centres unmarked)	infinitely soluble
CN1CCN(C)C1=O	infinitely soluble
CCCOC(C)COC(C)CO (centres unmarked)	infinitely soluble

# lookup: solubility in castor oil of `CCCCCCCCCCCCCC`
infinitely soluble
